Just for reference, ChEMBL document CHEMBL2007661 is where these values come from.

assay.target: Tyrosine-protein kinase Mer (Homo sapiens) (UniProt Q12866)
Sequence (whole entry): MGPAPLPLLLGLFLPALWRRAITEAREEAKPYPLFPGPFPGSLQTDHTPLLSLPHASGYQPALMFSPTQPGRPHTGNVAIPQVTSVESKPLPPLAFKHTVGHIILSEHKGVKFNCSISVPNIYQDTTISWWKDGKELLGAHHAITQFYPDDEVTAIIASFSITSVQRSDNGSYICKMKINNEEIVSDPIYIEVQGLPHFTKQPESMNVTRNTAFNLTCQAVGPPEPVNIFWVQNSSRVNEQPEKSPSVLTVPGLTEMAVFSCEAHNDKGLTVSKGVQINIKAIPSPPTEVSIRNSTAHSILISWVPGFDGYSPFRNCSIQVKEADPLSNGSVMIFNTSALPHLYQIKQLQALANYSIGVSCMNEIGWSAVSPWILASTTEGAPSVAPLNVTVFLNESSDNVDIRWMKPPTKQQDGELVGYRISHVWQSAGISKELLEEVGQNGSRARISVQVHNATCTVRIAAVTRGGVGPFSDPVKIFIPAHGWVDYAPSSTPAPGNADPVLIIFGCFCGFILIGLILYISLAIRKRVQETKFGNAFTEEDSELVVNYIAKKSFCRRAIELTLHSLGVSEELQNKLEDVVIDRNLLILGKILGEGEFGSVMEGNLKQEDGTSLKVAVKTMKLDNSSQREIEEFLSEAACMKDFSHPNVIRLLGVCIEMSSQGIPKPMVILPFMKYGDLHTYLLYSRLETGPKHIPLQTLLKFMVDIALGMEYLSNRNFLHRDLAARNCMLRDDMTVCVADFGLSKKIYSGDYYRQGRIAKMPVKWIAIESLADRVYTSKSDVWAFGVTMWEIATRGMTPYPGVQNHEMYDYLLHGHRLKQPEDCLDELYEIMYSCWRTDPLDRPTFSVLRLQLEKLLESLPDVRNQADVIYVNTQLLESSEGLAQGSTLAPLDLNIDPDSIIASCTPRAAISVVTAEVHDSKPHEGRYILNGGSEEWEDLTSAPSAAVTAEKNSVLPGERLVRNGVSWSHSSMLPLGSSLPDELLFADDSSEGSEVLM
study.conditions: at 10 µM
attribute.measured: inhibition (%)
Return type: number; implicit unit %.

CCCN(CCS(C)(=O)=O)Cc1ccc(-c2ccc3ncnc(Nc4ccc(OCc5cccc(F)c5)c(Cl)c4)c3c2)o1	-3
CN1CCC(C(=O)Nc2n[nH]c3nnc(-c4ccccc4)cc23)CC1	1
COc1cc2ncn(-c3cc(O[C@@H](C)c4ccccc4Cl)c(C(N)=O)s3)c2cc1OC	69

stdin: Notebook entry, Tyrosine-protein kinase Mer (Homo sapiens) (UniProt Q12866) assay: inhibition of COc1cc2ncnc(Nc3ccc(C)c(O)c3)c2cc1OC = ?
stdout: -10

stdin: Now give it for NC(=O)c1sc(-n2cnc3ccc(C(F)(F)F)cc32)cc1OCc1ccccc1Br too.
stdout: 101

stdin: Try the compound O=C(Nc1ccc(Oc2ccc3[nH]c(NC(=O)c4ccco4)nc3c2)cc1)Nc1cc(C(F)(F)F)ccc1F
stdout: 27

stdin: Do the same for COc1cccc(/C=N/Nc2ncnc3c2cnn3-c2cccc(OC)c2)c1 please
stdout: -6
